tested-system: T1, Cyno ST2-fc (cyno; human, UniProt A0A2K5UDB8 19-331)
T1 construct: also called cyno ST2 fused with a human IgG1 Fc tag at the C-terminus
T1 sequence: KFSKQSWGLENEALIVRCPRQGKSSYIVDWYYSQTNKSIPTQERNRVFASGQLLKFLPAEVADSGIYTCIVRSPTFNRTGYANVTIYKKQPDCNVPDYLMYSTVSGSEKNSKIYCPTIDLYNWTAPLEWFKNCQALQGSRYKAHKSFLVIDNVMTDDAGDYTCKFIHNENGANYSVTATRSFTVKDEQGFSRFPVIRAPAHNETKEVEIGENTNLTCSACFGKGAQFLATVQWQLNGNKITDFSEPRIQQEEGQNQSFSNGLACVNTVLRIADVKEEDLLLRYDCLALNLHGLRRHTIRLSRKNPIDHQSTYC
measurement-notes: SPR Biacore X100, antibody on CM5, cyno ST2-fc analyte

binder	kon / M⁻¹ s⁻¹
5887-537H3+L1 (antibody, V domains shown, murine antibody; also called 5887-537H3H+L1) VH: QVTLKESGPGILQPSQTLSLTCSFSGFSLSTSGMGVGWIRQPSGKGLEWLAHIWWDDVKQYNPALKSRLTISKDTSSSQVFLKSASVDTADTATYYCARIGGDYDYFDFWGQGTTLTVSS VL: DIVLTQSPASLAVSLGQRATISCRASESVEYSGTSLMQWYQQKPGQPPKLLIYVASNVESGVPARFSGSGSGTDFSLNIHPVEEDDIAMYFCQQSRKVPWTFGGGTKLEIK	6.33e+06
Control antibody CNTO7160 (antibody, human IgG4 S228P, kappa, V domains shown) VH: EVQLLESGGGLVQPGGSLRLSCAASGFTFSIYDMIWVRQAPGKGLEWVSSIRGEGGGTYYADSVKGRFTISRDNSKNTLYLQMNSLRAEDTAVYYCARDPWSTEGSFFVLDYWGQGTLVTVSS VL: EIVLTQSPATLSLSPGERATLSCRASQSVDDDLAWYQQKPGQAPRLLIYDASNRATGIPARFSGSGSGTDFTLTISSLEPEDFAVYYCQQYITAPLTFGQGTKVEIKR	1.63e+06
5888-116H1+L1 (antibody, V domains shown, murine antibody) VH: QVQLQQSGAELVRPGASVTLSCKASGYTFTDSEMYWVRLTPVHGLEWIGAIDPETGDTAFNQKFKGKATLTADKSSSTAYMELRSLTSEDSVVYYCTRAFDNDNDDGFAYWGQGTLVTVSA VL: QIVMTQSPAIMSASPGEKVTMTCSASSSVNYMHWYQQKSGTSPKRWIYDTSKLASGVPARFSGSGSGTSYSLTISSMEAEDAATYYCQQWSSNPLTFGAGTKLELK	8.14e+06
